From: paper PMC7967160

experimental protocol: in vitro
Format: cell-based
settings: human; PBM cells; read-out: MTS Cytotoxicity (IC50, μM) PBM
Recorded IC50 for the following compounds
Give a bare numeral; the unit µM is implied.

Example entries begin here.
compound	number
C/C(=C\CP(=O)(OCOC(=O)OC(C)C)OCOC(=O)OC(C)C)Cn1cc(C=O)nn1 [Compound 11i]	75.1
CCOC(=O)c1cn(C/C(C)=C/CP(=O)(OCOC(=O)OC(C)C)OCOC(=O)OC(C)C)nn1 [Compound 11o]	67.5
CCCCCCCc1ccc(-c2cn(C/C(C)=C/CP(=O)(OCOC(=O)OC(C)C)OCOC(=O)OC(C)C)nn2)cc1 [Compound 11e]	9.2
CCCCCCc1ccc(-c2cn(C/C(C)=C/CP(=O)(OCOC(=O)OC(C)C)OCOC(=O)OC(C)C)nn2)cc1 [Compound 11d]	23.7
C/C(=C\CP(=O)(OCOC(=O)OC(C)C)OCOC(=O)OC(C)C)Cn1cc(C2CC2)nn1 [Compound 11f]	25.5
CCCCCCCCCCCCCCCCOCCCOP(=O)(C/C=C(\C)Cn1cc(C(N)=O)nn1)OCOC(=O)OC(C)C (stereo not shown) [Compound 15j]	43.1

Switching to the query record.
Suppose we examine the compound C/C(=C\CP(=O)(OCOC(=O)OC(C)C)OCOC(=O)OC(C)C)Cn1cc(C(C)(C)C)nn1 [Compound 11g] ; what IC50 value has been reported?
28.3

----------
experimental protocol: in vitro
Type: cell-based
settings: human; PBM cells; read-out: MTS Cytotoxicity (IC50, μM) PBM
Procedure: Assays were performed in human peripheral blood mononuclear (PBM) and human liver (HepG2) cells via MTS assay using the CellTiter 96® Non-Radioactive Cell Proliferation (Promega) kit as previously described^3. Cytotoxicity was expressed as the concentration of test compounds that inhibited cell proliferation by 50% (IC50) and calculated using the Chou and Talalay method.
value type: log10 IC50 (log10 of the value in µM)
Units before log transform: µM; reported quantity: IC50; transform: log10.

Answered examples (6):
compound	log10 IC50
CCCc1ccc(-c2cn(C/C(C)=C/CP(=O)(OCOC(=O)OC(C)C)OCOC(=O)OC(C)C)nn2)cc1 [Compound 11a]	1.70
CCCCc1ccc(-c2cn(C/C(C)=C/CP(=O)(OCOC(=O)OC(C)C)OCOC(=O)OC(C)C)nn2)cc1 [Compound 11b]	1.29
COC(=O)c1cn(C/C(C)=C/CP(=O)(OCOC(=O)OC(C)C)OCOC(=O)OC(C)C)nn1 [Compound 11n]	1.61
C[C@@H]1C[C@@H]([C@H](O)CC2CC(=O)NC(=O)C2)C(=O)[C@@H](C)C1 [cycloheximide, reference compound]	0.00
CCCCCc1ccc(-c2cn(C/C(C)=C/CP(=O)(OCOC(=O)OC(C)C)OCOC(=O)OC(C)C)nn2)cc1 [Compound 11c]	1.68
CCNC(=O)c1cn(C/C(C)=C/CP(=O)(OCOC(=O)OC(C)C)OCOC(=O)OC(C)C)nn1 [Compound 11q]	1.91

Field: next compound
Could you share which log10 IC50 value was measured for C/C(=C\CP(=O)(OCOC(=O)OC(C)C)OCOC(=O)OC(C)C)Cn1cc(C(N)=O)nn1 [Compound 11j] ?
1.89

----------
System: SARS-CoV-2 strain BavPat1
experimental protocol: SARS-CoV-2 assay in Vero E6 cells (CellTiter-Blue)
settings: 10 μM
List of SARS-CoV-2 % Inhibition Vero E6 values.

Known results for compounds:
compound	tested system	SARS-CoV-2 % Inhibition Vero E6
C/C(=C\CP(=O)(OCOC(=O)OC(C)C)OCOC(=O)OC(C)C)Cn1cc(C=O)nn1 [Compound 11i]	SARS-CoV-2 strain BavPat1	<1%
CCCCc1ccc(-c2cn(C/C(C)=C/CP(=O)(OCOC(=O)OC(C)C)OCOC(=O)OC(C)C)nn2)cc1 [Compound 11b]	SARS-CoV-2 strain BavPat1	<1%
CCCCCCCCCCCCCCCCOCCCOP(=O)(C/C=C(\C)Cn1cc(-c2ccc([N+](=O)[O-])cc2)nn1)OCOC(=O)OC(C)C (centres unmarked) [Compound 15l]	SARS-CoV-2 strain BavPat1	<1%
C/C(=C\CP(=O)(OCOC(=O)OC(C)C)OCOC(=O)OC(C)C)Cn1cc(-c2ccc([N+](=O)[O-])cc2)nn1 [Compound 11l]	SARS-CoV-2 strain BavPat1	10%
C/C(=C\CP(=O)(OCOC(=O)OC(C)C)OCOC(=O)OC(C)C)Cn1cc(CO)nn1 [Compound 11h]	SARS-CoV-2 strain BavPat1	12%
CCCCCCCCCCCCCCCCOCCCOP(=O)(C/C=C(\C)Cn1cc(-c2ccc(CCCCC)cc2)nn1)OCOC(=O)OC(C)C (centres unmarked) [Compound 15c]	SARS-CoV-2 strain BavPat1	<1%
CCNC(=O)c1cn(C/C(C)=C/CP(=O)(OCOC(=O)OC(C)C)OCOC(=O)OC(C)C)nn1 [Compound 11q]	SARS-CoV-2 strain BavPat1	<1%
COC(=O)c1cn(C/C(C)=C/CP(=O)(OCOC(=O)OC(C)C)OCOC(=O)OC(C)C)nn1 [Compound 11n]	SARS-CoV-2 strain BavPat1	<1%
CCC(CC)COC(=O)[C@H](C)N[P@](=O)(OC[C@H]1O[C@@](C#N)(c2ccc3c(N)ncnn23)[C@H](O)[C@@H]1O)Oc1ccccc1 [Remdesivir, reference compound]	SARS-CoV-2 strain BavPat1	100%
CCCCCCCCCCCCCCCCOCCCOP(=O)(C/C=C(\C)Cn1cc(C(N)=O)nn1)OCOC(=O)OC(C)C (centres unmarked) [Compound 15j]	SARS-CoV-2 strain BavPat1	<1%

What does the record list as SARS-CoV-2 % Inhibition Vero E6 for C/C(=C\CP(=O)(OCOC(=O)OC(C)C)OCOC(=O)OC(C)C)Cn1cc(C(=O)O)nn1 [Compound 11m] ?
<1%

What value of measured SARS-CoV-2 % Inhibition Vero E6 is listed for C/C(=C\CP(=O)(OCOC(=O)OC(C)C)OCOC(=O)OC(C)C)Cn1cc(C(C)(C)C)nn1 [Compound 11g] ?
<1%

Can you look up the measured SARS-CoV-2 % Inhibition Vero E6 of CCCCCc1ccc(-c2cn(C/C(C)=C/CP(=O)(OCOC(=O)OC(C)C)OCOC(=O)OC(C)C)nn2)cc1 [Compound 11c] for me?
<1%

For the compound CCCc1ccc(-c2cn(C/C(C)=C/CP(=O)(OCOC(=O)OC(C)C)OCOC(=O)OC(C)C)nn2)cc1 [Compound 11a] , what SARS-CoV-2 % Inhibition Vero E6 is on record?
<1%

----------
Measured IC50 accompanies every entry in the list below.
experimental protocol: Cytotoxicity MTS assay in HepG2 cells
Type: cell-based
settings: human

Some solved entries appear below for comparison.
molecule	result
C/C(=C\CP(=O)(OCOC(=O)OC(C)C)OCOC(=O)OC(C)C)Cn1cc(C(=O)O)nn1 [Compound 11m]	> 100 µM
C/C(=C\CP(=O)(OCOC(=O)OC(C)C)OCOC(=O)OC(C)C)Cn1cc(C=O)nn1 [Compound 11i]	> 100 µM
CCCCc1ccc(-c2cn(C/C(C)=C/CP(=O)(OCOC(=O)OC(C)C)OCOC(=O)OC(C)C)nn2)cc1 [Compound 11b]	16.2 µM

Fill in: IC50 of CCCCCCc1ccc(-c2cn(C/C(C)=C/CP(=O)(OCOC(=O)OC(C)C)OCOC(=O)OC(C)C)nn2)cc1 [Compound 11d] is ___
59.6 µM

----------
Test system: HIV-1 LAI
experimental protocol: HIV assay in human PBM cells infected with HIV-1 LAI, RT quantification
Type: cell-based
settings: Human immunodeficiency virus 1, PBMC; 10 μM, PBM cells, HIV-1 LAI
I would appreciate it if you labelled entries yes when inhibition at 10 µM is 30% or higher, otherwise no.

Example results:
molecule	category label
C/C(=C\CP(=O)(OCOC(=O)OC(C)C)OCOC(=O)OC(C)C)Cn1cc(C(N)=O)nn1 [Compound 11j]	no
CCCc1ccc(-c2cn(C/C(C)=C/CP(=O)(OCOC(=O)OC(C)C)OCOC(=O)OC(C)C)nn2)cc1 [Compound 11a]	no
C/C(=C\CP(=O)(OCOC(=O)OC(C)C)OCOC(=O)OC(C)C)Cn1cc(C(C)(C)C)nn1 [Compound 11g]	no
CCCCCCCCCCCCCCCCOCCCOP(=O)(C/C=C(\C)Cn1cc(C(N)=O)nn1)OCOC(=O)OC(C)C (stereo not shown) [Compound 15j]	yes
COC(=O)c1cn(C/C(C)=C/CP(=O)(OCOC(=O)OC(C)C)OCOC(=O)OC(C)C)nn1 [Compound 11n]	no
CCNC(=O)c1cn(C/C(C)=C/CP(=O)(OCOC(=O)OC(C)C)OCOC(=O)OC(C)C)nn1 [Compound 11q]	yes
CCOC(=O)c1cn(C/C(C)=C/CP(=O)(OCOC(=O)OC(C)C)OCOC(=O)OC(C)C)nn1 [Compound 11o]	no
CCCCCCc1ccc(-c2cn(C/C(C)=C/CP(=O)(OCOC(=O)OC(C)C)OCOC(=O)OC(C)C)nn2)cc1 [Compound 11d]	yes

Now look at this one.
Kindly determine if inhibition at 10 µM recorded for CCCCCCCCCCCCCCCCOCCCOP(=O)(C/C=C(\C)Cn1cc(-c2ccc(CCCCC)cc2)nn1)OCOC(=O)OC(C)C (stereo not shown) [Compound 15c] is above or exactly 30%.
no
